This listing pairs compounds with measured growth at 10 µM.
- System: MOLT-4
- assayInfo: Growth inhibition of human MOLT-4 cells assessed as cell growth at 10 uM incubated for 48 hrs by sulforhodamine B assay relative to control
- Assay type: functional
- settings: read-out: Activity

# smilesRepr, testedSystem, readoutUnits, growth at 10 µM
measured = [
    ("CCc1cccc(C)c1NC(=O)c1sc2nc3c(cc2c1N)C(=O)CCC3", "MOLT-4", "%", 17.9),
    ("Cc1ccc(NC(=O)c2sc3nc4c(cc3c2N)C(=O)CCC4)cc1C", "MOLT-4", "%", 27.6),
    ("CN1CCc2nc3sc(C(N)=O)c(N)c3c(-c3cccs3)c2C1", "MOLT-4", "%", 9),
    ("COc1ccc(S(=O)(=O)n2ccc(-c3ccc(OC(C)C)cc3)n2)cc1", "MOLT-4", "%", 86.9),
    ("COc1ccc(-c2ccn(S(=O)(=O)c3ccc(C)cc3)n2)cc1", "MOLT-4", "%", 95.2),
    ("Cc1cccc(NC(=O)c2sc3nc4c(cc3c2N)C(=O)CCC4)c1", "MOLT-4", "%", 42),
    ("Nc1c(C(=O)N(c2ccccc2)c2ccccc2)sc2nc3c(cc12)C(=O)CCC3", "MOLT-4", "%", 102),
    ("Nc1c(C(=O)Nc2ccccc2)sc2nc3c(cc12)CN(Cc1ccccc1)CC3", "MOLT-4", "%", 81),
    ("CCOc1ccc(-c2cc(N)n(S(=O)(=O)c3ccc(OC)cc3)n2)cc1", "MOLT-4", "%", 85.2),
    ("COc1ccc(S(=O)(=O)n2ccc(-c3ccc4c(c3)CCC(C)(C)O4)n2)cc1", "MOLT-4", "%", 65.9),
    ("Cc1cc(C)cc(S(=O)(=O)n2ccc(-c3ccc4c(c3)CCC(C)(C)O4)n2)c1", "MOLT-4", "%", 91.4),
    ("CC(C)N1CCc2nc3sc(C(=O)Nc4ccccc4)c(N)c3cc2C1", "MOLT-4", "%", 106),
    ("CC(=O)c1cccc(NC(=O)c2sc3nc4c(cc3c2N)C(=O)CCC4)c1", "MOLT-4", "%", 107),
    ("COc1ccc(-c2ccn(S(=O)(=O)c3ccc(OC)cc3)n2)cc1", "MOLT-4", "%", 73.2),
    ("CC1(C)CCc2cc(-c3ccn(S(=O)(=O)c4ccc(C(C)(C)C)cc4)n3)ccc2O1", "MOLT-4", "%", 98.5),
    ("O=S(=O)(c1ccccc1)n1ccc(-c2ccc3c(c2)CCO3)n1", "MOLT-4", "%", 85.6),
    ("Cc1ccc(S(=O)(=O)n2ccc(-c3ccc(OCCCF)cc3)n2)cc1", "MOLT-4", "%", 73.2),
    ("O=S(=O)(c1ccc(Br)cc1)n1ccc(-c2ccc(OCCCF)cc2)n1", "MOLT-4", "%", 75.8),
]
